Biological target: T1, GLP-1 receptor (endogenous, RINm5F cell membranes; rat thyroid carcinoma 6-23 clone 6 cells) (rat, UniProt P32301 22-463)
T1 sequence (looked up): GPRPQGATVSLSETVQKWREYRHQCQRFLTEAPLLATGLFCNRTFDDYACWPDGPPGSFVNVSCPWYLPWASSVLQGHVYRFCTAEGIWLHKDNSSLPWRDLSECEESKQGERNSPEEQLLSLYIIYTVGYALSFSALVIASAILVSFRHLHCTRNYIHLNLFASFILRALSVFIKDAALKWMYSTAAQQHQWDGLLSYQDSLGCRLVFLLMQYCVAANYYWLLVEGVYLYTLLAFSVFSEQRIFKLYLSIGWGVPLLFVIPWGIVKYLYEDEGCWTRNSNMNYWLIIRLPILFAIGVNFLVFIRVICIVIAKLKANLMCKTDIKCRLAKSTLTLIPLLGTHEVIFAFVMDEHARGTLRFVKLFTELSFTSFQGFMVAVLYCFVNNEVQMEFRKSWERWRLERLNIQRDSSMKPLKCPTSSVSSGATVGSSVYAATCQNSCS
Experiment: cell-based or functional assay
GLP-1 cAMP (6-23) EC50 strictly under 40 nM means class 1; at 40 nM or over means class 0.

Qu. Dear colleague, could you confirm whether GLP-1 cAMP (6-23) EC50 of HAEGTYTNDVTEYLEEKAAKEFIEWLIKGKPKKIRY (also called nmGLP-1 analog) [SEQ ID NO 34] falls below 40 nM? Thanks.
Ans. class 1

Qu. Determine if HAEGTYTNDVTEYLEEKAAKEFIEW [SEQ ID NO 46] shows GLP-1 cAMP (6-23) EC50 strictly lower than 40 nM.
Ans. class 0

Qu. Threshold test, GLP-1 cAMP (6-23) EC50 < 40 nM: HAEGTYTNDVTEYEEKAAKEFIEWLIKGKPKKIRYS (also called nmGLP-1 analog) [SEQ ID NO 38]
Ans. class 0

Qu. GLP-1 cAMP (6-23) EC50 under 40 nM? Item: HAEGTYTNDVTEYLEEKAAKEFIEWLIKGKPKKIRYS (also called nmGLP-1 peptide; naturally occurring nmGLP-1) [SEQ ID NO 2]
Ans. class 1

Qu. Please indicate whether the reported GLP-1 cAMP (6-23) EC50 of HAEGTYTNDVTEYLEEKAAKFIEWLIKGKPKKIRYS (also called nmGLP-1 analog) [SEQ ID NO 31] is strictly below 40 nM.
Ans. class 0

Shifting focus to the binder that follows.
Qu. Does this binder meet the criterion GLP-1 cAMP (6-23) EC50 < 40 nM? HAEGTYTNDVTEYLEEKAAKEFIEWLIGKPKKIRYS (also called nmGLP-1 analog) [SEQ ID NO 35]
Ans. class 1
